target: SMARCA2 (Homo sapiens, UniProt P51531); assay: SMARCA2 HiBiT degradation assay in HeLa cells; assay type: cell-based; conditions: 18 hours
Sequence (P51531 whole entry): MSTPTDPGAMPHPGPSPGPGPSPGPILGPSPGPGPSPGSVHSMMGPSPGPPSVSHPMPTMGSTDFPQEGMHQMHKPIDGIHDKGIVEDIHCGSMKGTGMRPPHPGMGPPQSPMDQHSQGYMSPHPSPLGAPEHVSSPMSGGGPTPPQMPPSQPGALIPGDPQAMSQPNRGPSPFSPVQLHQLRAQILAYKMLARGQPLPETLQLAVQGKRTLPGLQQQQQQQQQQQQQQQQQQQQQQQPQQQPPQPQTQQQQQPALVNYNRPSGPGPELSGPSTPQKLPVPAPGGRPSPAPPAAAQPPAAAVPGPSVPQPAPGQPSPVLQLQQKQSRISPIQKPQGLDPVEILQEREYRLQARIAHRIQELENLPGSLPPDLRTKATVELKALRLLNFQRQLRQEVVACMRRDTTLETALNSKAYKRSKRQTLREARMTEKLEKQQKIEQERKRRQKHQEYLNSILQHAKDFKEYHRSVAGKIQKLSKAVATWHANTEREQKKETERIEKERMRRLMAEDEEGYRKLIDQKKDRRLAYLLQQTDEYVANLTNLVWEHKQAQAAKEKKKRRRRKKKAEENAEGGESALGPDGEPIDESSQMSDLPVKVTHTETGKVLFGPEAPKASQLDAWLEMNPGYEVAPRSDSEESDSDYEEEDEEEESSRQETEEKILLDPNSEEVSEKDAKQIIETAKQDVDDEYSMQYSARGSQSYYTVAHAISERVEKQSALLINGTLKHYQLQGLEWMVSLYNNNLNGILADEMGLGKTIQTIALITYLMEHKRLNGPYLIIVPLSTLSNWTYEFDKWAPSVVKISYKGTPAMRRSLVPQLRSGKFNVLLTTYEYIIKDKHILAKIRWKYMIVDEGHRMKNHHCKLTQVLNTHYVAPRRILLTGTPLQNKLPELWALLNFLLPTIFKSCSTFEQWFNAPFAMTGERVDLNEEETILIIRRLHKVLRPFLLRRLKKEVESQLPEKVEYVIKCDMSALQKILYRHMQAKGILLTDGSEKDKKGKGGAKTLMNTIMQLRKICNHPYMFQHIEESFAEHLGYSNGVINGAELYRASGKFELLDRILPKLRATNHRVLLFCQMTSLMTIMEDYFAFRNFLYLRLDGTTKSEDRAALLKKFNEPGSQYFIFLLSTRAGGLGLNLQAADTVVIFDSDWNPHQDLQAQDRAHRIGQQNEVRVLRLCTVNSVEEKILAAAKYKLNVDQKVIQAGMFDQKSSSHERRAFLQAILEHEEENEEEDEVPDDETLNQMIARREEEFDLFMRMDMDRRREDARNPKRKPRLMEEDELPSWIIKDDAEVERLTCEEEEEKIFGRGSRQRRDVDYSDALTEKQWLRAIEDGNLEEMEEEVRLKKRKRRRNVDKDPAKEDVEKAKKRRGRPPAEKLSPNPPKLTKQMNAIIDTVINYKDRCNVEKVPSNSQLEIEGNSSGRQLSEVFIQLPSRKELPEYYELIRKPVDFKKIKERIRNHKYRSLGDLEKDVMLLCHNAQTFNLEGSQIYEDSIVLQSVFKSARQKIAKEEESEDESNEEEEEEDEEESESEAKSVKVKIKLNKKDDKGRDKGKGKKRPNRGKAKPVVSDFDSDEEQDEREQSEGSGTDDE
assay-metric: DC50

# count of solved cases: 3
1) Cc1ncsc1-c1ccc([C@H](C)NC(=O)[C@@H]2C[C@@H](O)CN2C(=O)[C@@H](c2cc(OCCN3CCC(N4CCN5c6cc(-c7ccccc7O)nnc6N[C@@H](C)[C@@H]5C4)CC3)no2)C(C)C)cc1 :: 100 to 1000 pM
2) Cc1cc(CN2CCN(c3ccc4c(c3)C(=O)N([C@H]3CCC(=O)NC3=O)C4)CC2)cnc1O[C@H]1CN2c3cc(-c4ccccc4O)nnc3NC[C@]2(C)C1 [Compound 3] :: 100 to 1000 pM
3) Cc1cc(C(=O)N2CCN(c3ccc4c(c3)C(=O)N([C@H]3CCC(=O)NC3=O)C4)CC2)cnc1O[C@H]1CN2c3cc(-c4ccccc4O)nnc3NC[C@]2(C)C1 :: < 100 pM

Any idea what DC50 was measured for CC[C@]12CNc3nnc(-c4ccccc4O)cc3N1C[C@H](Oc1ncc(CN3CCN(c4ccc5c(c4)C(=O)N([C@H]4CCC(=O)NC4=O)C5)CC3)cc1C)C2 ? < 100 pM

###

target: SMARCA4 (Homo sapiens); assay: SMARCA4 HiBiT degradation assay in HeLa cells; type: cell-based; set-up: SMARCA4-HiBiT knock-in Hela monoclonal cell (CS3023226) were purchased from Promega; host or cells: HeLa SMARCA4-HiBiT knock-in monoclonal cells (heterozygous); conditions: HeLa, 18 hours
Let's look at some molecules and their measured Dmax.

1) CC[C@]12CNc3nnc(-c4ccccc4O)cc3N1C[C@H](Oc1ccc(CN3CCC(c4ccc5c(c4)C(=O)N([C@H]4CCC(=O)NC4=O)C5)CC3)cn1)C2 :: 50 to 90%
2) Cc1cc(C(=O)N2CCN(c3ccc4c(c3)C(=O)N([C@H]3CCC(=O)NC3=O)C4)CC2)cnc1O[C@H]1CN2c3cc(-c4ccccc4O)nnc3NC[C@]2(C)C1 :: 50 to 90%
3) Cc1ncsc1-c1ccc([C@H](C)NC(=O)[C@@H]2C[C@@H](O)CN2C(=O)[C@@H](c2cc(OCCN3CCC(N4CCN5c6cc(-c7ccccc7O)nnc6N[C@@H](C)[C@@H]5C4)CC3)no2)C(C)C)cc1 :: > 90%
4) CC[C@]12CNc3nnc(-c4ccccc4O)cc3N1C[C@H](Oc1ncc(C(=O)N3CCN(c4ccc5c(c4)C(=O)N([C@H]4CCC(=O)NC4=O)C5)CC3)cc1C)C2 :: 50 to 90%
5) Cc1ncsc1-c1ccc([C@H](C)NC(=O)[C@@H]2C[C@@H](O)CN2C(=O)[C@@H](c2cc(OCCN3CCC(N4CCN5c6cc(-c7ccccc7O)nnc6N[C@H](C)[C@H]5C4)CC3)no2)C(C)C)cc1 :: > 90%
6) Cc1ncsc1-c1ccc([C@H](C)NC(=O)[C@@H]2C[C@@H](O)CN2C(=O)[C@@H](c2cc(OCCN3CCC(N4CCN5c6cc(-c7ccccc7O)nnc6N[C@@H](C)[C@H]5C4)CC3)no2)C(C)C)cc1 :: 50 to 90%

Reported Dmax, molecule Cc1ncsc1-c1ccc([C@H](C)NC(=O)[C@@H]2C[C@@H](O)CN2C(=O)[C@@H](c2cc(OCCN3CCC(N4CCN5c6cc(-c7ccccc7O)nnc6N[C@H](C)[C@@H]5C4)CC3)no2)C(C)C)cc1 : ____ > 90%

###

molecular target: SMARCA4 (Homo sapiens); experiment: SMARCA4 HiBiT degradation assay in HeLa cells; format: cell-based; parameters: SMARCA4-HiBiT knock-in Hela monoclonal cell (CS3023226) were purchased from Promega; host or cells: HeLa SMARCA4-HiBiT knock-in monoclonal cells (heterozygous); settings: 18 hours
assay-metric: DC50

// solved cases for DC50 follow
1. CC[C@]12CNc3nnc(-c4ccccc4O)cc3N1C[C@H](Oc1ccc(CN3CCC(c4ccc5c(c4)C(=O)N([C@H]4CCC(=O)NC4=O)C5)CC3)cn1)C2 :: 0.1 to 1 nM
2. Cc1ncsc1-c1ccc([C@H](C)NC(=O)[C@@H]2C[C@@H](O)CN2C(=O)[C@@H](c2cc(OCCN3CCC(N4CCN5c6cc(-c7ccccc7O)nnc6N[C@@H](C)[C@H]5C4)CC3)no2)C(C)C)cc1 :: 1 to 10 nM

Here is another molecule to look at.
Value lookup for DC50; key = C[C@]12CNc3nnc(-c4ccccc4O)cc3N1C[C@H](Oc1ncc(CN3CCN(c4ccc5c(c4)C(=O)N([C@H]4CCC(=O)NC4=O)C5)CC3)cc1F)C2 0.1 to 1 nM

###

molecular target: SMARCA2 (Homo sapiens); assay: SMARCA2 HiBiT degradation assay in HeLa cells; type: cell-based; details: 18 hours
Measured Dmax values are reported for all entries that follow.

Illustrative cases are given below, each with its answer.
1. CC[C@]12CNc3nnc(-c4ccccc4O)cc3N1C[C@H](Oc1ncc(CN3CCN(c4ccc5c(c4)C(=O)N([C@H]4CCC(=O)NC4=O)C5)CC3)nc1C)C2 :: > 90%
2. Cc1ncsc1-c1ccc([C@H](C)NC(=O)[C@@H]2C[C@@H](O)CN2C(=O)[C@@H](c2cc(OCCN3CCC(N4CCN5c6cc(-c7ccccc7O)nnc6N[C@H](C)[C@H]5C4)CC3)no2)C(C)C)cc1 :: > 90%

Consider now this further compound.
Value lookup for Dmax; key = CC[C@]12CNc3nnc(-c4ccccc4O)cc3N1C[C@H](Oc1ccc(CN3CCC(c4ccc5c(c4)C(=O)N([C@H]4CCC(=O)NC4=O)C5)CC3)cn1)C2 > 90%

###

target: SMARCA2 (Homo sapiens); assay: SMARCA2 HiBiT degradation assay in HeLa cells; type: cell-based; settings: 18 hours
assay-metric: DC50

As a guide, the following entries are already answered.
1) C[C@]12CNc3nnc(-c4ccccc4O)cc3N1C[C@H](Oc1ncc(CN3CCN(c4ccc5c(c4)C(=O)N([C@H]4CCC(=O)NC4=O)C5)CC3)cc1F)C2 [Compound 2] :: 0.1 to 1 nM
2) Cc1ncsc1-c1ccc([C@H](C)NC(=O)[C@@H]2C[C@@H](O)CN2C(=O)[C@@H](c2cc(OCCN3CCC(N4CCN5c6cc(-c7ccccc7O)nnc6N[C@H](C)[C@H]5C4)CC3)no2)C(C)C)cc1 [Compound 13] :: 0.1 to 1 nM
3) Cc1ncsc1-c1ccc([C@H](C)NC(=O)[C@@H]2C[C@@H](O)CN2C(=O)[C@@H](c2cc(OCCN3CCC(N4CCN5c6cc(-c7ccccc7O)nnc6N[C@@H](C)[C@H]5C4)CC3)no2)C(C)C)cc1 [Compound 14] :: 1 to 10 nM

Could you now consider this next compound?
What does the record list as DC50 for CC[C@]12CNc3nnc(-c4ccccc4O)cc3N1C[C@H](Oc1ncc(C(=O)N3CCN(c4ccc5c(c4)C(=O)N([C@H]4CCC(=O)NC4=O)C5)CC3)cc1C)C2 [Compound 7] ? < 0.1 nM

###

molecular target: UniProt:P51532; test: SMARCA4 HiBiT degradation assay in HeLa cells; assay type: cell-based; set-up: SMARCA4-HiBiT knock-in Hela monoclonal cell (CS3023226) were purchased from Promega; host or cells: HeLa SMARCA4-HiBiT knock-in monoclonal cells (heterozygous); conditions: 18 hours
assay-metric: DC50

If you can, please state the reported DC50 value of C[C@]12CNc3nnc(-c4ccccc4O)cc3N1C[C@H](Oc1ccc(CN3CCN(c4ccc5c(c4)C(=O)N([C@H]4CCC(=O)NC4=O)C5)CC3)cn1)C2 . 0.1 to 1 nM

###

Measured DC50 of individual entries
target: SMARCA4 (Homo sapiens, UniProt P51532); experiment: SMARCA4 HiBiT degradation assay in HeLa cells; type: cell-based; set-up: SMARCA4-HiBiT knock-in Hela monoclonal cell (CS3023226) were purchased from Promega; host or cells: HeLa SMARCA4-HiBiT knock-in monoclonal cells (heterozygous); settings: 18 hours
Sequence (P51532 whole entry): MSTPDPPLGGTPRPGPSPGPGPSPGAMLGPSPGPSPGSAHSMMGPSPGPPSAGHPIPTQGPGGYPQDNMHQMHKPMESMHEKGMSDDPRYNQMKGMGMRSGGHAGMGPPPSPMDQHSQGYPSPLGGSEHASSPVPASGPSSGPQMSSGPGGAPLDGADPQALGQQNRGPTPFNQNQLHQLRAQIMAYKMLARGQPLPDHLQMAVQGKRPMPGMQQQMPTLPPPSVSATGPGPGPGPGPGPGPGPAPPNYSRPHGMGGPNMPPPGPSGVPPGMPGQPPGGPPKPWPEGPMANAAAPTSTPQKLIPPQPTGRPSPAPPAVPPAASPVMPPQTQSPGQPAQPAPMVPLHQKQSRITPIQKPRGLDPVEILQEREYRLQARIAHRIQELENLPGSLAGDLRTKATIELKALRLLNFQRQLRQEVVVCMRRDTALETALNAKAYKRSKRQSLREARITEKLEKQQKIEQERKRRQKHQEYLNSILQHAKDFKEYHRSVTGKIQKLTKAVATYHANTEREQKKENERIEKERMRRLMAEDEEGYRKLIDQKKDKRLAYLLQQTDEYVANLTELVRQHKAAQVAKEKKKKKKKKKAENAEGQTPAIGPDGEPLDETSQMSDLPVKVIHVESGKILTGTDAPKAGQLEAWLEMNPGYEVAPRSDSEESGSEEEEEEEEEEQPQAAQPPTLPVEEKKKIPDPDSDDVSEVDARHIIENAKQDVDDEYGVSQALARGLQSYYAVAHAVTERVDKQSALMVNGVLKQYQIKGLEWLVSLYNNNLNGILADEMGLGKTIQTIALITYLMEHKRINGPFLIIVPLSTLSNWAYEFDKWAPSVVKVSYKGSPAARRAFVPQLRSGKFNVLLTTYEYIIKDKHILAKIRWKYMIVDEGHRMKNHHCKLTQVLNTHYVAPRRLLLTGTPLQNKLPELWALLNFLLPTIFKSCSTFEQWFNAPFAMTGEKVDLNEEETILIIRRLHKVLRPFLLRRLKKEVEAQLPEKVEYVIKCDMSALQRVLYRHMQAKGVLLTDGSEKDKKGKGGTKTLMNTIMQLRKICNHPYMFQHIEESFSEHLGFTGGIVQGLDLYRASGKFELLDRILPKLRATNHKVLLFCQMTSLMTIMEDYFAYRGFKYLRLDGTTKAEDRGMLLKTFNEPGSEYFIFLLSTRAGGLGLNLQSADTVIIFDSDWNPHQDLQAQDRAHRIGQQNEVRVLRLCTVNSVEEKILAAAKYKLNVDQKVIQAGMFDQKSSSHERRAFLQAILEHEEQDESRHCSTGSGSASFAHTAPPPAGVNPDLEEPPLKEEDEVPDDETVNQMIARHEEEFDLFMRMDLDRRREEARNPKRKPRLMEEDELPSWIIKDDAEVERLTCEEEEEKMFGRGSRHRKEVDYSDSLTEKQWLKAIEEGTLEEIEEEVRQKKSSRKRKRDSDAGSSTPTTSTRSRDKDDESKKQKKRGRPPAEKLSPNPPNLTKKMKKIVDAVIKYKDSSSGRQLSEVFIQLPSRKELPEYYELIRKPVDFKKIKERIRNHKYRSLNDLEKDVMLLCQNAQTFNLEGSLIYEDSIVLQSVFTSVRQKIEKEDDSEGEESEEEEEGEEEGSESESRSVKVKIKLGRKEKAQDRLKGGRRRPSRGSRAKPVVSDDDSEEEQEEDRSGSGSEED

Solved entries:
1) Cc1cc(C(=O)N2CCN(c3ccc4c(c3)C(=O)N([C@H]3CCC(=O)NC3=O)C4)CC2)cnc1O[C@H]1CN2c3cc(-c4ccccc4O)nnc3NC[C@]2(C)C1 :: 0.1 to 1 nM
2) CC[C@]12CNc3nnc(-c4ccccc4O)cc3N1C[C@H](Oc1ncc(CN3CCN(c4ccc5c(c4)C(=O)N([C@H]4CCC(=O)NC4=O)C5)CC3)cc1C)C2 :: < 0.1 nM
3) CC[C@]12CNc3nnc(-c4ccccc4O)cc3N1C[C@H](Oc1ncc(CN3CCN(c4ccc5c(c4)C(=O)N([C@H]4CCC(=O)NC4=O)C5)CC3)nc1C)C2 :: 0.1 to 1 nM
4) Cc1ncsc1-c1ccc([C@H](C)NC(=O)[C@@H]2C[C@@H](O)CN2C(=O)[C@@H](c2cc(OCCN3CCC(N4CCN5c6cc(-c7ccccc7O)nnc6N[C@H](C)[C@@H]5C4)CC3)no2)C(C)C)cc1 :: 1 to 10 nM

Requested read-out: DC50. Entry: CC[C@]12CNc3nnc(-c4ccccc4O)cc3N1C[C@H](Oc1ncc(C(=O)N3CCN(c4ccc5c(c4)C(=O)N([C@H]4CCC(=O)NC4=O)C5)CC3)cc1C)C2 0.1 to 1 nM
